# Test system: SK-MEL-28 melanoma
# protocolDetails: NCI-60 one-dose screen, 48 h
# cond: 10 µM unless noted
About 83,000 compounds went through this panel and 20% of them were active in at least one assay; those are over-represented in the sample as a whole. Active and inactive are the calls of the source. How the source made its calls: active means growth percent below 10; inactive means the rest.
Your response should consist of one outcome taken from active, inactive

[
  {
    "compound": "CCOC(=O)C1=C(N)N(c2ccccc2)C2=C(C(=O)CC(C)(C)C2)C1c1ccc(N2CCOCC2)cc1 (configuration not stated)",
    "classification": "inactive"
  }
]

I'd appreciate the recorded outcome for CCOC(=O)COc1c(OC)c(OC)cc2oc(-c3cccc(C(=O)Nc4ccc(Cl)cc4)c3)cc(=O)c12 from this test.
inactive
